Please respond with reported GI50 for every item in the list.
- Test system: MDA-MB-468 breast
- test-name: NCI tumour cell line growth inhibition, 48 h

Would you mind telling me what GI50 value was observed for COc1cc2c(c(OC)c1OC)-c1ccc(OC)c(=O)cc1[C@@H](NC(=O)CCl)CC2 ?
< 0.01 µM

Would you mind telling me what GI50 value was observed for O=c1oc2ccc(Cl)cc2c(=O)n1-c1ccc(Cl)cc1F ?
0.382 µM

Would you mind telling me what GI50 value was observed for COc1ccc(OC)c(/C=C/c2nnc(Nc3ccc(Cl)cc3)o2)c1 ?
16.4 µM

Would you mind telling me what GI50 value was observed for CCCCCCCCN(CCCCCCCC)C(=N)c1ccnc2ccccc12 ?
0.342 µM

Would you mind telling me what GI50 value was observed for Cc1ccc(-c2csc(N(C(=O)N3CCN(c4cc5c(cc4F)c(=O)c(C(=O)O)cn5C4CC4)CC3)c3ccccc3)n2)cc1 ?
0.366 µM

Would you mind telling me what GI50 value was observed for CC(C)(C)c1cc(NC(=O)Nc2ccc(-c3cn4c5c(sc4n3)CCc3cn(CCCN4CCCCC4)cc3-5)cc2)no1 ?
1.84 µM

Would you mind telling me what GI50 value was observed for COc1ccc(C(=O)/C=C/c2cc3ccccc3[nH]c2=O)cc1 ?
10.5 µM
